Every entry's value here was drawn from patent US20230203098A1.

Target: transferrin receptor (hTfR) (Homo sapiens, UniProt P02786)
Sequence (P02786 whole entry): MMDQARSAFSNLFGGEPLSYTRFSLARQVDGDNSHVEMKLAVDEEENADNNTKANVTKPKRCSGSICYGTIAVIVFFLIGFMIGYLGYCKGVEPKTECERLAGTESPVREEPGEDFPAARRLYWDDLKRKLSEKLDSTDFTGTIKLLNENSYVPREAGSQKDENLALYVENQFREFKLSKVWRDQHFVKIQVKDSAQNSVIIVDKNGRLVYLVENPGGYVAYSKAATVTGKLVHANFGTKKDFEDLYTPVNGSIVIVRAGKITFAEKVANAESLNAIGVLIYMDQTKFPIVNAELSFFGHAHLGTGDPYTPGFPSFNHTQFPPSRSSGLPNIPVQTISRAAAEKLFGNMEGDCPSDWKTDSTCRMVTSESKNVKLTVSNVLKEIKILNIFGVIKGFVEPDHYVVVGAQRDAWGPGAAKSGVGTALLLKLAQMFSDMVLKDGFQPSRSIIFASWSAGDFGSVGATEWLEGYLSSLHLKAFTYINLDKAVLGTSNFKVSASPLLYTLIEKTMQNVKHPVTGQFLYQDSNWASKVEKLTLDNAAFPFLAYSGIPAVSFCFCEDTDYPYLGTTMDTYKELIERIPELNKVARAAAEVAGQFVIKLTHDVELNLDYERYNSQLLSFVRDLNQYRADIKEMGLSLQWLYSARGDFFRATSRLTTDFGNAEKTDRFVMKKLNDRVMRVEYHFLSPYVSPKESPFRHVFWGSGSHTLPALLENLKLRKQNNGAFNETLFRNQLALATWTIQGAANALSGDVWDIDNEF
Experiment: Intermolecular interaction evaluation test between transferrin receptor (hTfR) and peptide by surface plasmon resonance (SPR)
Type: binding
Details: surface plasmon resonance, hTfR; read-out: KD value for hTfR by SPR (class symbol)
Observation type: Kd

[[record]]
molecule = "CC[C@H](C)[C@@H]1NC(=O)[C@H](Cc2ccc(OC)cc2)NC(=O)[C@H](Cc2ccc(O)cc2)NC(=O)[C@H](CC(N)=O)NC(=O)[C@H](Cc2c[nH]c3ccccc23)N(C)C(=O)[C@H](C(C)C)NC(=O)[C@H](Cc2cccc(Cl)c2)N(C)C(=O)[C@H](C(C)C)NC(=O)[C@H](C)NC(=O)CSC[C@@H](C(N)=O)NC(=O)[C@H](Cc2ccc(O)cc2)N(C)C(=O)[C@H](Cc2ccc(Cl)cc2)NC(=O)[C@@H](CCCNC(=N)N)NC(=O)[C@H](CCCNC(=N)N)NC(=O)[C@H]([C@@H](C)CC)NC1=O [compound 392]"
observation_type = "Kd"
test_value = "1 to 100 nM"

[[record]]
molecule = "CC[C@H](C)[C@@H]1NC(=O)[C@H](Cc2ccc(OC)cc2)NC(=O)[C@H](Cc2ccc(O)cc2)NC(=O)[C@H](CC(N)=O)NC(=O)[C@H](Cc2c[nH]c3ccccc23)N(C)C(=O)[C@H](C(C)C)NC(=O)[C@H](Cc2cccc(Cl)c2)N(C)C(=O)[C@H](C(C)C)NC(=O)[C@H](C)NC(=O)CSC[C@@H](C(N)=O)NC(=O)[C@H](Cc2ccc(O)cc2)N(C)C(=O)[C@H](Cc2ccccc2)NC(=O)[C@@H](C)NC(=O)[C@H](CCCCN)N(C)C(=O)[C@H]([C@@H](C)CC)NC1=O [compound 378]"
observation_type = "Kd"
test_value = "100 to 1000 nM"

[[record]]
molecule = "CC[C@H](C)[C@@H]1NC(=O)[C@H](Cc2ccc(OC)cc2)NC(=O)[C@H](Cc2ccc(O)cc2)NC(=O)[C@H](CC(N)=O)NC(=O)[C@H](Cc2c[nH]c3ccccc23)N(C)C(=O)[C@H](C(C)C)NC(=O)[C@H](Cc2cccc(Cl)c2)N(C)C(=O)[C@H](C(C)C)NC(=O)[C@H](C)NC(=O)CSC[C@@H](C(N)=O)NC(=O)[C@H](Cc2ccc(O)cc2)N(C)C(=O)[C@H](Cc2ccccc2)NC(=O)[C@@H](CCCNC(=N)N)NC(=O)[C@H](CCCCN)NC(=O)[C@H]([C@@H](C)CC)NC1=O [compound 373]"
observation_type = "Kd"
test_value = "1 to 100 nM"

[[record]]
molecule = "CC[C@H](C)[C@@H]1NC(=O)[C@H](Cc2ccc(OC)cc2)NC(=O)[C@H](Cc2ccc(O)cc2)NC(=O)[C@H](CC(N)=O)NC(=O)[C@H](Cc2c[nH]c3ccccc23)N(C)C(=O)[C@H](C(C)C)NC(=O)[C@H](Cc2cccc(Cl)c2)N(C)C(=O)[C@H](C(C)C)NC(=O)[C@H](C)NC(=O)CSC[C@@H](C(N)=O)NC(=O)[C@H](Cc2ccc(O)cc2)N(C)C(=O)[C@H](Cc2ccccc2)NC(=O)[C@H](CCCNC(=N)N)NC(=O)[C@H](CCCNC(=N)N)NC(=O)[C@H]([C@@H](C)CC)NC1=O [compound 386]"
observation_type = "Kd"
test_value = "1 to 100 nM"

[[record]]
molecule = "CC[C@H](C)[C@@H]1NC(=O)[C@H](Cc2ccc(OC)cc2)NC(=O)[C@H](Cc2ccc(O)cc2)NC(=O)[C@H](CC(N)=O)NC(=O)[C@H](Cc2c[nH]c3ccccc23)N(C)C(=O)[C@H](C(C)C)NC(=O)[C@H](Cc2cccc(Cl)c2)N(C)C(=O)[C@H](C(C)C)NC(=O)[C@H](C)NC(=O)CSC[C@@H](C(=O)NCCOCCOCCOCCOCCC(N)=O)NC(=O)[C@H](Cc2ccc(O)cc2)N(C)C(=O)[C@H](Cc2ccccc2)NC(=O)[C@H](CCCNC(=N)N)NC(=O)C(C)(C)NC(=O)[C@H]([C@@H](C)CC)NC1=O [compound 351]"
observation_type = "Kd"
test_value = "1 to 100 nM"

[[record]]
molecule = "CC[C@H](C)[C@@H]1NC(=O)[C@H](Cc2ccc(OC)cc2)NC(=O)[C@H](Cc2ccc(O)cc2)NC(=O)[C@H](CC(N)=O)NC(=O)[C@H](Cc2c[nH]c3ccccc23)N(C)C(=O)[C@H](C(C)C)NC(=O)[C@H](Cc2cccc(Cl)c2)N(C)C(=O)[C@H](C(C)C)NC(=O)[C@H](C)NC(=O)CSC[C@@H](C(=O)NCCOCCOCCOCCOCCC(N)=O)NC(=O)[C@H](Cc2ccc(O)cc2)N(C)C(=O)[C@H](Cc2ccccc2)NC(=O)[C@@H](CCCNC(=N)N)NC(=O)[C@H](CCCNC(=N)N)NC(=O)[C@H]([C@@H](C)CC)NC1=O [compound 400]"
observation_type = "Kd"
test_value = "1 to 100 nM"

[[record]]
molecule = "CC[C@H](C)[C@@H]1NC(=O)[C@H](Cc2ccc(OC)cc2)NC(=O)[C@H](Cc2ccc(O)cc2)NC(=O)[C@H](CC(N)=O)NC(=O)[C@H](Cc2c[nH]c3ccccc23)N(C)C(=O)[C@H](C(C)C)NC(=O)[C@H](Cc2cccc(Cl)c2)N(C)C(=O)[C@H](C(C)C)NC(=O)[C@H](C)NC(=O)CSC[C@@H](C(N)=O)NC(=O)[C@H](Cc2ccc(O)cc2)N(C)C(=O)[C@H](Cc2ccccc2)NC(=O)[C@H](CCCNC(=N)N)NC(=O)C(C)(CCCCN)NC(=O)[C@H]([C@@H](C)CC)NC1=O (stereo partly drawn) [compound 379]"
observation_type = "Kd"
test_value = "1 to 100 nM"

[[record]]
molecule = "CC[C@H](C)[C@@H]1NC(=O)[C@H](Cc2ccc(OC)cc2)NC(=O)[C@H](Cc2ccc(O)cc2)NC(=O)[C@H](CC(N)=O)NC(=O)[C@H](Cc2c[nH]c3ccccc23)N(C)C(=O)[C@H](C(C)C)NC(=O)[C@H](Cc2cccc(Cl)c2)N(C)C(=O)[C@H](C(C)C)NC(=O)[C@H](C)NC(=O)CSC[C@@H](C(N)=O)NC(=O)[C@H](Cc2ccc(O)cc2)N(C)C(=O)[C@H](Cc2ccccc2)NC(=O)[C@H](CCCNC(=N)N)NC(=O)[C@H](CCCCN)NC(=O)[C@H]([C@@H](C)CC)NC1=O [compound 371]"
observation_type = "Kd"
test_value = "< 1 nM"

[[record]]
molecule = "CC[C@H](C)[C@@H]1NC(=O)[C@H](Cc2ccc(OC)cc2)NC(=O)[C@H](Cc2ccc(O)cc2)NC(=O)[C@H](CC(N)=O)NC(=O)[C@H](Cc2c[nH]c3ccccc23)N(C)C(=O)[C@H](C(C)C)NC(=O)[C@H](Cc2cccc(Cl)c2)N(C)C(=O)[C@H](C(C)C)NC(=O)[C@H](C)NC(=O)CSC[C@@H](C(N)=O)NC(=O)[C@H](Cc2ccc(O)cc2)N(C)C(=O)[C@H](Cc2cccc(Cl)c2)NC(=O)[C@@H](CCCNC(=N)N)NC(=O)[C@H](CCCNC(=N)N)NC(=O)[C@H]([C@@H](C)CC)NC1=O [compound 393]"
observation_type = "Kd"
test_value = "1 to 100 nM"

